Target: Myc proto-oncogene protein (Homo sapiens) (UniProt P01106)
Sequence (P01106 whole entry, looked up): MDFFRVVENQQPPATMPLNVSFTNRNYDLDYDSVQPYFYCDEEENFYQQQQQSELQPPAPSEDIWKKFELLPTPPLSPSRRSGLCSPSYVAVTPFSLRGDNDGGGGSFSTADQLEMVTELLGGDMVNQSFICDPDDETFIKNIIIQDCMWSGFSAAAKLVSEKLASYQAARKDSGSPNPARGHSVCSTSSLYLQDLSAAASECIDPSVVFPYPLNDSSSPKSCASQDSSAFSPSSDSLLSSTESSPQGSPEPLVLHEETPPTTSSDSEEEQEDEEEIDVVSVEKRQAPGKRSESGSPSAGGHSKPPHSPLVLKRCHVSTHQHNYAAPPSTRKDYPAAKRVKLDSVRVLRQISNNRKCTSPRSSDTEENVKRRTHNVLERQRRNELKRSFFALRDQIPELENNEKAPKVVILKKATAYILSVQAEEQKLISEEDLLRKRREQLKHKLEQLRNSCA
Assay: ATG_Myc_CIS: Attagene CIS-FACTORIAL HepG2 Assay for human Myelocytomatosis (Myc) Proto-Oncogene Transcription Factor (AID 2282990)
Details: HepG2, Attagene cis-reporter transcription factor activity; actives raise or lower the signal
Method: ATG_CIS is a cell-based, multiplexed-readout assay that uses HepG2, a human liver cell line, with measurements taken at 24 hours after chemical dosing in a 24-well plate.ATG_Myc_CIS is one of 52 assay component(s) measured or calculated from the ATG_CIS assay. […] This assay endpoint, ATG_Myc_CIS, was analyzed with bidirectional fitting relative to DMSO as the negative control and baseline of activity. […]
Activity calls are given as the source filed them. How the source made its calls: active means hit-call score of the fitted dose curve at least 0.9, where 1 is the maximum; inactive means score below 0.9.
Answer with one of the outcomes given here: class 1 (active), class 0 (inactive)

C[C@](N)(Cc1ccc(O)c(O)c1)C(=O)O = class 0

# fetch the recorded call for `CC(=O)OCCC(C)C` here
class 0

# fetch the recorded call for `CC[C@H]1OC(=O)[C@H](C)[C@@H](O[C@H]2C[C@@](C)(OC)[C@@H](O)[C@H](C)O2)[C@H](C)[C@@H](O[C@@H]2O[C@H](C)C[C@H](N(C)C)[C@H]2O)[C@](C)(O)C[C@@H](C)C(=O)[C@H](C)[C@@H](O)[C@]1(C)O` here
class 0

# fetch the recorded call for O=C1OC(=O)C2C3C=CC(C3)C12 (configuration not stated) here
class 0

###

read-out: Lipoprotein lipase (LPL), LPL (gene 4023); experiment: LTEA_HepaRG_LPL: Life Technologies and Expression Analysis (LTEA) Assay for Lipoprotein lipase (LPL) using HepaRG (AID 2283515); conditions: mRNA level, 48 h; actives raise or lower the signal
Calls of active or inactive are those of the source. The calls were made as follows: active = hit-call score of the fitted dose curve at least 0.9, where 1 is the maximum; inactive = score below 0.9.
Answer with one of the outcomes given here: true (1) for active, false (0) for inactive

These recorded examples may help you get a feel for the data.
C1N2CN3CN1CN(C2)C3 = false (0)
CC(C)c1cccc(C(C)C)c1N1C(=O)c2ccc(O)cc2C1=O = true (1)
CC(C)CCCCCCCOC(=O)CCCCC(=O)OCCCCCCCC(C)C = false (0)
CCOc1cccc(-n2cc(C(=O)N3CCN(c4cc(C(=O)O)c5ccccc5c4)CC3)nc2-c2ccc(C)cc2)c1 = true (1)
O=C(O)c1cccc(Oc2ccccc2)c1 = false (0)

# fetch the recorded call for CC(C)=CCCC(C)CCO (stereo not drawn) here
false (0)

# fetch the recorded call for `Nc1ccc(Nc2ccccc2)cc1` here
false (0)

# fetch the recorded call for `CCCC(=O)OCC` here
false (0)

###

assay: ATG_MRE_CIS: Attagene CIS-FACTORIAL HepG2 Assay for human Metal Responsive Element (MRE) (AID 2282954); conditions: HepG2 MRE cis-reporter transcription, Attagene multiplex; actives raise or lower the signal
Activity calls are given as the source filed them. How the source made its calls: active means hit-call score of the fitted dose curve at least 0.9, where 1 is the maximum; inactive means score below 0.9.
observable: AC50

Below are worked cases with known answers.
CC[C@H]1CC[C@H](NCc2cc3c(cc2OC)[C@H]2C[C@H]2C(=O)N3C)[C@H](c2ccccc2)N1 = 114 µM (active)
CCCCCCCCCCCCc1ccccc1 = inactive
CC(C)(O)c1coc(S(=O)(=O)NC(=O)Nc2c3c(cc4c2CCC4)CCC3)c1 = inactive
CCCCCCCCO = inactive
CN(C)c1ccc(Cc2ccc(N(C)C)cc2)cc1 = 50.3 µM (active)

# AC50 lookup, item `Nc1cccc(N)c1`
inactive

# AC50 lookup, item `COc1cccc(-c2ccc(/C=C\CN3CCCCCC3)cc2Cl)c1`
inactive

# AC50 lookup, item `C1=CCCC=CCCC=CCC1`
inactive

# AC50 lookup, item `COC(=O)c1ccccc1O`
inactive

# AC50 lookup, item `Cn1c(=O)cc(Oc2ccc(F)cc2F)c2cnc(NCC(C)(C)O)nc21`
inactive

###

assay: APR_HepG2_MitoticArrest_72hr: Apredica 72-hour HepG2 Assay for Mitotic Arrest (AID 2282918); details: high-content imaging, actives raise or lower the signal
The source made the active and inactive calls. The calls were made as follows: active = hit-call score of the fitted dose curve at least 0.9, where 1 is the maximum; inactive = score below 0.9.
Answer with one of the outcomes given here: Y for active, N for inactive

These recorded examples may help you get a feel for the data.
Cn1cnc([N+](=O)[O-])c1Sc1ncnc2nc[nH]c12 = N
CCc1cc(SCc2sc(-c3ccc(C(F)(F)F)cc3)nc2CN2CCN(c3ccc(OC)cc3)CC2)ccc1OCC(=O)O = Y
COC(=O)CC(=O)OC = N
Nc1ccc(Nc2ccccc2)cc1 = Y
CCNc1ccccc1 = N
CC[C@H](C)C(=O)O[C@H]1C[C@@H](C)C=C2C=C[C@H](C)[C@H](CC[C@@H]3C[C@@H](O)CC(=O)O3)[C@H]21 = Y

# fetch the recorded call for `Nc1nc2ncc(CNc3ccc(C(=O)N[C@@H](CCC(=O)O)C(=O)O)cc3)nc2c(=O)[nH]1` here
N

# fetch the recorded call for `C1N2CN3CN1CN(C2)C3` here
N

# fetch the recorded call for `CC(C)=CCC/C(C)=C\CO` here
N

# fetch the recorded call for `CC(C)c1cccc(C(C)C)c1N1C(=O)c2ccc(O)cc2C1=O` here
Y

# fetch the recorded call for `CN(C)c1ccc(N=NS(=O)(=O)O)cc1` here
N

# fetch the recorded call for `CCCCCCc1ccc(O)cc1O` here
Y

###

read-out: DNA damage-inducible transcript 3 (DDIT3), DDIT3 (gene 1649); experiment: LTEA_HepaRG_DDIT3: Life Technologies and Expression Analysis (LTEA) Assay for DNA damage-inducible transcript 3 (DDIT3) using HepaRG (AID 2283488); details: mRNA level, 48 h; actives raise or lower the signal
Activity calls are given as the source filed them. The calls were made as follows: active = hit-call score of the fitted dose curve at least 0.9, where 1 is the maximum; inactive = score below 0.9.
Answer with one of the outcomes given here: T (active), F (inactive)

These recorded examples may help you get a feel for the data.
CCOCCOCCOCCO = F
Nc1cccc(N)c1 = F
Cn1cnc([N+](=O)[O-])c1Sc1ncnc2nc[nH]c12 = T
CCOC(=O)c1ccc(C2CCC(NC[C@H](O)COc3ccc(O)c(NS(C)(=O)=O)c3)CC2)cc1 (some centres not stated) = F
CC[C@H]1CC[C@H](NCc2cc3c(cc2OC)[C@H]2C[C@H]2C(=O)N3C)[C@H](c2ccccc2)N1 = T
O=c1[nH]c2ccc(S(=O)CCN3CCC(Cc4ccc(F)cc4)CC3)cc2o1 (configuration not stated) = T

# fetch the recorded call for CCOC(=O)COc1ccc2c(c1)CC(NCC(O)c1cccc(Cl)c1)CC2 (configuration not stated) here
F

# fetch the recorded call for `CN(C)c1ccc(Cc2ccc(N(C)C)cc2)cc1` here
F

# fetch the recorded call for `CCCCCCc1ccc(O)cc1O` here
F

###

read-out: X-box binding protein 1 (XBP1), XBP1 (gene 7494); assay: LTEA_HepaRG_XBP1: Life Technologies and Expression Analysis (LTEA) Assay for X-box binding protein 1 (XBP1) using HepaRG (AID 2283540); settings: mRNA level, 48 h; actives raise or lower the signal
Active and inactive are the calls of the source. The calls were made as follows: active = hit-call score of the fitted dose curve at least 0.9, where 1 is the maximum; inactive = score below 0.9.
Answer with one of the outcomes given here: t = active, f = inactive

These recorded examples may help you get a feel for the data.
CCCCCCc1ccc(O)cc1O = f
O=c1n(CC2CO2)c(=O)n(CC2CO2)c(=O)n1CC1CO1 (stereo not drawn) = f

# fetch the recorded call for CCCCC(CC)COC(=O)CCCCCCCCC(=O)OCC(CC)CCCC (stereo not drawn) here
f

# fetch the recorded call for CC(C)CC(C)(O)C#CC(C)(O)CC(C)C (stereo not drawn) here
f

# fetch the recorded call for `Cc1ccc(C)c(O)c1` here
f

# fetch the recorded call for `CC(C)CCO` here
f

###

test: CCTE_Shafer_MEA_dev_interburst_interval_mean: CCTE's Neural Network Formation Assay for Mean Interburst Interval, Shafer Lab (AID 2284046);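 further: well-mean interburst interval of bursting electrodes as AUC over four recording days; curve fitted for decrease in interburst interval relative to DMSO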
Activity calls are given as the source filed them. The calls were made as follows: active = hit-call score of the fitted dose curve at least 0.9, where 1 is the maximum; inactive = score below 0.9.
Answer with one of the outcomes given here: active, inactive

These recorded examples may help you get a feel for the data.
COc1ccc(-n2nc(C(F)F)cc2-c2ccc(S(C)=O)cc2)cc1 (stereo not given) = inactive
CCC(C)(C)C(=O)O[C@H]1C[C@@H](C)C=C2C=C[C@H](C)[C@H](CC[C@@H]3C[C@@H](O)CC(=O)O3)[C@H]21 = active
Cn1c(=O)c2c(ncn2C)n(C)c1=O = inactive
CNCc1ccc(NC(=O)c2c[nH]c3c2C(=O)CCC3)cc1 = inactive

# fetch the recorded call for `O=P(OC(CCl)CCl)(OC(CCl)CCl)OC(CCl)CCl` here
inactive

###

biological target: Estrogen receptor beta (Homo sapiens); assay: OT_ER_ERbERb_1440: Odyssey Thera (OT) 24-hour HEK293T Protein-Complementation Assay for Estrogen Receptor-beta/-beta Homodimer (AID 2283380);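 further: fluorescence gain from ER beta LBD homodimer complementation read by laser scanning cytometry; scored as signal increase over DMSO baseline for both agonists and antagonists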
Calls of active or inactive are those of the source. How the source made its calls: active means hit-call score of the fitted dose curve at least 0.9, where 1 is the maximum; inconclusive means response in the unintended direction; inactive means score below 0.9.
observable: outcome

CCn1nc(Cc2ccccc2)cc1C1CCN(C[C@H]2C[C@H](N(C)[C@@H](C(=O)O)C(C)C)C[C@@H]2c2cccc(F)c2)CC1 = inactive
CC(C)=CCCC(C)=CC=O = inactive
CC[C@H]1OC(=O)[C@H](C)[C@@H](O[C@H]2C[C@@](C)(OC)[C@@H](O)[C@H](C)O2)[C@H](C)[C@@H](O[C@@H]2O[C@H](C)C[C@H](N(C)C)[C@H]2O)[C@](C)(O)C[C@@H](C)C(=O)[C@H](C)[C@@H](O)[C@]1(C)O = inactive
